Some molecules, each annotated with its measured remaining at 1 h, 10 μM.
# assay: Peptide stability in simulated intestinal fluid (SIF)
# Assay type: in vitro ADME
# measurement.parameters: pig, simulated intestinal fluid (SIF) with porcine pancreatin, Table 3-2, porcine pancreatin, pH 6.8, 37° C., 10 μM, 1 h, read-out: SIF (% remaining 1 h)
*1 amine or outer side, *2 acyl side, *3 side chain or, on linkers, in order; H or OH if unused. Where a SMILES comes first, the peptide text is derived from it. Bridges are numbered along the chain shown (N, C = ends). [ ]: non-standard residue; d: D form. Trp(1-Me) = Cn1cc(C[C@H](N)C(=O)O)c2ccccc21; 2Nal = N[C@@H](Cc1ccc2ccccc2c1)C(=O)O; AEF = NCCOc1ccc(C[C@H](N)C(=O)O)cc1; αMeL = CC(C)C[C@](C)(N)C(=O)O; CH2COCH2 = O=C(C[*:1])C[*:2]; 3Amb = NCc1cccc(C(=O)O)c1; Ahx = NCCCCCC(=O)O

- CC(C)C[C@H]1NC(=O)[C@H](Cc2ccc3ccccc3c2)NC(=O)[C@H](Cc2ccc(OCCN)cc2)NC(=O)[C@@H]2CSCC(=O)CSC[C@H](NC(=O)[C@H](CO)NC(=O)c3cccc(c3)CNC(=O)CC[C@@H](C(=O)N[C@@H](Cc3ccc(O)cc3)C(N)=O)NC1=O)C(=O)N[C@@H](Cc1c[nH]c3ccccc13)C(=O)N[C@@H](CCC(N)=O)C(=O)N2 [Compound 46] ([3Amb]SCWQC[AEF][2Nal][dL]EY-NH2; linker 3-6 via CH2COCH2; lactam N-10): 9%

Input line: Record request: remaining at 1 h, 10 μM value, item CC(=O)N[C@@H](CC(=O)O)C(=O)N[C@H]1CCC(=O)NCCCC[C@@H](C(=O)N[C@@H](CCC(=O)O)C(=O)N[C@@H](CC(N)=O)C(=O)NCC(N)=O)NC(=O)[C@](C)(CC(C)C)NC(=O)[C@H](Cc2ccc3ccccc3c2)NC(=O)[C@H](Cc2c[nH]c3ccccc23)NC(=O)[C@@H]2CSCC(=O)CSC[C@H](NC(=O)[C@H](CO)NC1=O)C(=O)N[C@@H](Cc1c[nH]c3ccccc13)C(=O)N[C@@H](CCC(N)=O)C(=O)N2 [Compound 58] (Ac-DESCWQCW[2Nal][αMeL]KENG-NH2; lactam 2-11; linker 4-7 via CH2COCH2)
Output line: 80%

Input line: Record request: remaining at 1 h, 10 μM value, item CC(=O)N[C@H]1CCCCNC(=O)CC[C@@H](C(=O)N[C@@H](CCCNC(=N)N)C(N)=O)NC(=O)[C@H](CC(C)C)NC(=O)[C@H](Cc2ccc3ccccc3c2)NC(=O)[C@H](Cc2c[nH]c3ccccc23)NC(=O)[C@@H]2CSCC(=O)CSC[C@H](NC(=O)[C@H](CO)NC1=O)C(=O)N[C@@H](Cc1cn(C)c3ccccc13)C(=O)N[C@@H](CCC(N)=O)C(=O)N2 [Compound 27] (Ac-KSC[Trp(1-Me)]QCW[2Nal]LER-NH2; lactam 1-10; linker 3-6 via CH2COCH2)
Output line: 0%

Input line: Record request: remaining at 1 h, 10 μM value, item CC(C)C[C@]1(C)NC(=O)[C@H](Cc2ccc3ccccc3c2)NC(=O)[C@H](Cc2ccc(OCCN)cc2)NC(=O)[C@@H]2CSCC(=O)CSC[C@H](NC(=O)[C@H](CO)NC(=O)CCCCCNC(=O)CC[C@@H](C(=O)N[C@H](CCCNC(=N)N)C(N)=O)NC1=O)C(=O)N[C@@H](Cc1c[nH]c3ccccc13)C(=O)N[C@@H](CCC(N)=O)C(=O)N2 [Compound 87] ([Ahx]SCWQC[AEF][2Nal][αMeL]E[dR]-NH2; linker 3-6 via CH2COCH2; lactam N-10)
Output line: 95%

Input line: Record request: remaining at 1 h, 10 μM value, item CC(=O)N[C@H]1CCSC[C@@H](C(=O)N[C@@H](Cc2ccc(OCCN)cc2)C(=O)N[C@@H](Cc2c[nH]c3ccccc23)C(=O)N[C@@](C)(CCCCN)C(=O)N[C@@H](CCC(=O)O)C(=O)N[C@@H](CC(N)=O)C(=O)NCC(N)=O)NC(=O)[C@H](CCC(N)=O)NC(=O)[C@H](Cc2c[nH]c3ccccc23)NC(=O)[C@H]([C@@H](C)O)NC(=O)[C@H](CCC(N)=O)NC1=O [Compound C, reference compound]
Output line: 92%
